Reported IC50 values follow for various binders
# study_target: T1, human CD47 overexpressed on CHO cells (human, UniProt Q08722 19-292)
# T1 construct: CHO cells transfected with pCHO1.0 carrying human CD47 cDNA (Sino Biological); also called hCD47; CHO-hCD47 cells
# protocol: flow cytometry competition on CHO-hCD47 cells against 200 nM mouse Fc-labeled SIRPα

{"columns": ["binder", "IC50 (nM)"],
 "data": [
  ["ADI-29342 (antibody, human IgG1, kappa, V domains shown, Full-length IgG1 kappa expressed in yeast, purified by Protein A) VH: QVQLQESGPGLVKPSETLSLTCTVSGGSIMHYYWSWIRQPPGKGLEWIGYIYYSGSTNYNPSLKSRVTISVDTSKNQFSLKLSSVTAADTAVYYCARGKTGSAAWGQGTLVTVSS VL: DIQMTQSPSSVSASVGDRVTITCRASQGISRWLAWYQQKPGKAPKLLIYAASSLQSGVPSRFSGSGSGTDFTLTISSLQPEDFATYYCQQTVSFPITFGGGTKVEIKR", 2.69],
  ["ADI-29345 (antibody, human IgG1, kappa, V domains shown, Full-length IgG1 kappa expressed in yeast, purified by Protein A) VH: QVQLQESGPGLVKPSETLSLTCTVSGGSISHYYWSWIRQPPGKGLEWIGYIYYSGVTTYNPSLKSRVTISVDTSKNQFSLKLSSVTAADTAVYYCARGKTGSTAWGQGTLVTVSS VL: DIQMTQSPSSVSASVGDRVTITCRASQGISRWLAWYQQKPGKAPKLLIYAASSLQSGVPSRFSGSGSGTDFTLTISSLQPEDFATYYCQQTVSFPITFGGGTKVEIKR", 2.75],
  ["ADI-26660 (antibody, human IgG1, kappa, V domains shown, Full-length IgG1 kappa expressed in yeast, purified by Protein A) VH: QVQLQESGPGLVKPSETLSLTCTVSGGSISSYYWSWIRQPPGKGLEWIGSIYYSGSTNYNPSLKSRVTISVDTSKNQFSLKLSSVTAADTAVYYCARKQKHFDIWGQGTMVTVSS VL: DIQMTQSPSSVSASVGDRVTITCRASQGISSWLAWYQQKPGKAPKLLIYAASSLQSGVPSRFSGSGSGTDFTLTISSLQPEDFATYYCQQVNHHPWTFGGGTKVEIKR", 16.7],
  ["ADI-29338 (antibody, human IgG1, kappa, V domains shown, Full-length IgG1 kappa expressed in yeast, purified by Protein A) VH: QVQLQESGPGLVKPSETLSLTCTVSGGSISSYYWSWIRQPPGKGLEWIGTIYYSGSTRYNPSLKSRVTISVDTSKNQFSLKLSSVTAADTAVYYCARGKSAFDPWGQGTLVTVSS VL: DIQMTQSPSSVSASVGDRVTITCRASQGISRWLAWYQQKPGKAPKLLIYAASSLQSGVPSRFSGSGSGTDFTLTISSLQPEDFATYYCQQADLHPPLTFGGGTKVEIKR", 3.14]
]}
